biological target: KRas-mediated phosphorylation of ERK in A549 cells (Homo sapiens, UniProt P01116, G12S); construct: pERK HTRF read-out; test: Inhibition of KRas-mediated phosphorylation of ERK (HTRF), A549 cells; assay type: cell-based; conditions: HTRF pERK, 3 h incubation
Sequence (P01116 1-188 isoform P01116-2 G12S): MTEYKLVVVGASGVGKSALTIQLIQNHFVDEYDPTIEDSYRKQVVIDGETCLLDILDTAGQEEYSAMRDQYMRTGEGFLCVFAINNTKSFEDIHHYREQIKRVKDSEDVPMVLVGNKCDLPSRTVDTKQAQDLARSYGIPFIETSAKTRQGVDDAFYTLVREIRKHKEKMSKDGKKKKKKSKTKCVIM
READOUT_KIND: IC50 (nM)

Use the examples below as a reference point.
CCc1c(F)ccc2cc(O)cc(-c3ncc4c(N5CCCCC(C(=O)n6ccc(C)n6)CC5)nc(OC[C@@]56CCCN5C/C(=C\F)C6)nc4c3F)c12 (some centres unmarked) [Example 124]: 7
Cc1ccn(C(=O)CCNc2cc(O[C@@H](C)[C@@H]3CCCN3C)nc(-c3noc([C@@]4(C)CCCc5sc(N)c(C#N)c54)n3)n2)n1 [Example 318]: 17
Cc1ccn(C(=O)[C@@H]2[C@@H]3CCN(c4nc(OC[C@@]56CCCN5C[C@H](F)C6)nc5c(F)c(-c6ccc(F)c7sc(N)c(C#N)c67)c(Cl)cc45)C[C@@H]32)n1 [Example 179]: 167

P. CCc1c(F)ccc2cc(O)cc(-c3ncc4c(N5C[C@H]6C[C@@H](C(=O)n7ccc(C)n7)C[C@H]6C5)nc(OC[C@@]56CCCN5C[C@H](F)C6)nc4c3F)c12 [Example 128]
Q. CCc1c(F)ccc2cc(O)cc(-c3ncc4c(N5CCC(CC(=O)n6ccc(C)n6)C5)nc(OC[C@@]56CCCN5C[C@H](F)C6)nc4c3F)c12 (some centres unmarked) [Example 113]
Query string: // select label with min value of measured IC50 from [ P , Q ] Which one? Tell me its label.
Result string: P
(P: 57 nM, Q: 110 nM)

P. CC(=O)N(C)C(=O)[C@@H]1C[C@H]1CNc1nc(OC[C@@]23CCCN2C[C@H](F)C3)nc2c(F)c(-c3ccc(F)c4sc(N)c(C#N)c34)c(Cl)cc12 [Example 238]
Q. CCc1c(F)ccc2cc(O)cc(-c3ncc4c(N5CCCN(C(=O)n6ccc(C)n6)CC5)nc(OC[C@@]56CCCN5C[C@H](F)C6)nc4c3F)c12 [Example 69]
Query string: // select label with min value of measured IC50 from [ P , Q ] Which one? Tell me its label.
Result string: P

A. CCc1c(F)ccc2cc(O)cc(-c3ncc4c(N5CC6C(CC(=O)n7ccc(C)n7)C6C5)nc(OC[C@@]56CCCN5C[C@H](F)C6)nc4c3F)c12 (some centres unmarked) [Example 120]
B. CCc1c(F)ccc2cc(O)cc(-c3ncc4c(N5CCC(C(=O)n6nc(C)cc6C)CC5)nc(OC[C@@]56CCCN5C[C@H](F)C6)nc4c3F)c12 [Example 74]
C. Cc1ccn(C(=O)[C@H]2CCCN(c3nc(OC[C@@]45CCCN4C[C@H](F)C5)nc4c(F)c(-c5ccc(F)c6sc(N)c(C#N)c56)c(Cl)cc34)CC2)n1 (atropisomer, axis not shown; (aS)) [Example 170]
Query string: Please list the entries, largest IC50 first. Answer format: the labels, in the requested order.
Result string: B, A, C
